Assay: Toxicity liver stage against HepG2, at 10uM
Format: cell-based
Set-up: test concentration 10 uM, cell line HepG2-A16-CD81EGFP
Conditions: human, HepG2-A16-CD81EGFP cells; read-out: INHIBITION
Experimental endpoint: cytotoxicity at 10 µM (%)

Compound	Reading unit	Observed value
CCOCc1cncc2c1CCN(C(=O)c1cscn1)C2	%	-107
CCNC(=O)c1cc(OC)c(OC)cc1N(C)S(C)(=O)=O	%	1.56
Cc1nc(CN2CCC3(C2)CN(Cc2ccco2)C3)cs1	%	-106
CC(C)CNc1nnc(SC(C(=O)NCc2cccnc2)C(C)C)s1 (stereo not given)	%	-5.9
CCOC1Sc2nnc(C)n2N=C1c1ccc(Cl)cc1 (stereo not given)	%	11.3
Cc1cc(C(=O)NC2CCN(c3ncccc3C#N)CC2)no1	%	-7.25
Cc1cc(=O)n2ncnc2n1CC(O)c1cc(Cl)ccc1Cl (stereo not given)	%	3.19
CCN(CC)CC(=O)N1CCN(CCc2ccncc2)CC1	%	-44.7
Cc1ccc(-n2ncc(C(=O)NC3CCCCC3)c2N)cc1	%	-50.6
Cc1ccc(CCNC(=O)Cn2nc(C)n(Cc3ccccc3)c2=O)s1	%	-3.66
